Measured IC50 (µg/mL), neutralization of pseudovirus accompanies every entry in the list below.
# Tested On: HIV-1 Env of isolate MGRM-G-013 (subtype G), on pseudovirus (HIV-1)
# Assay Info: cell-based or functional assay
Reported Property: IC50 (µg/mL), neutralization of pseudovirus

>>> result("PGT-130 (antibody, V domains shown) VH: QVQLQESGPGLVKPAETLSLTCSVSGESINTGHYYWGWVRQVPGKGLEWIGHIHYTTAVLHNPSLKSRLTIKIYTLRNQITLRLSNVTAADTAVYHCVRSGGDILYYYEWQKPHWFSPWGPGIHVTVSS VL: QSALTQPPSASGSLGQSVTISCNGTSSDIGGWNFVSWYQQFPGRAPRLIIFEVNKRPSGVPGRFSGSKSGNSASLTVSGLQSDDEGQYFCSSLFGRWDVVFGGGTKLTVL")
"> 50 µg/mL"
>>> result("PGT-137 (antibody, V domains shown) VH: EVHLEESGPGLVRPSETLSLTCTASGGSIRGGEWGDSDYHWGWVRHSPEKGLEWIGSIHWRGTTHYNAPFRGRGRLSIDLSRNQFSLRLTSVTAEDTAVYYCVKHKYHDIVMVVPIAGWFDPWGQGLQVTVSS VL: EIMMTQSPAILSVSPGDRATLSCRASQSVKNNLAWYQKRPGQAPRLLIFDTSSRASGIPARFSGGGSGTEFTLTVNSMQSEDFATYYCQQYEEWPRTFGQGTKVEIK")
"> 50 µg/mL"
>>> result("PGT-136 (antibody, V domains shown) VH: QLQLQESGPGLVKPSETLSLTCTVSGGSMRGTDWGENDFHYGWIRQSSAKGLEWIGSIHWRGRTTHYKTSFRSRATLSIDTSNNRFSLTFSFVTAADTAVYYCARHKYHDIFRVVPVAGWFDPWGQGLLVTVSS VL: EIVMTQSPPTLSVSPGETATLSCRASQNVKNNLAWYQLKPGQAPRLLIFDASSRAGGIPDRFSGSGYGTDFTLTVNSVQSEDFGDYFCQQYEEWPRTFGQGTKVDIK")
"> 50 µg/mL"
